# PROTOCOL: amyloid nucleation score (Sup35N fusion, yeast selection) (log enrichment); library NNK3; higher = more nucleation; inactive = no reads after selection;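 further: zero at mode of non-aggregating sequences after 7 days selection at 30°C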
MEASUREMENT_KIND: amyloid nucleation score

- RESIDUE_CODES: "SISAALWAFL"
  READOUT_VALUE: "inactive"
- RESIDUE_CODES: "MLLGRLSLEVKFEWIFPRIG"
  READOUT_VALUE: 0.687
- RESIDUE_CODES: "FNFLVMILGITLPNNITFEH"
  READOUT_VALUE: 0.279
- RESIDUE_CODES: "FFSSFPFKIIEMLSFEGSFR"
  READOUT_VALUE: "inactive"
- RESIDUE_CODES: "HGFFNLWWRARLHLAPLHHH"
  READOUT_VALUE: "inactive"
- RESIDUE_CODES: "NDKVYRVGRTNLYNV"
  READOUT_VALUE: "inactive"
- RESIDUE_CODES: "SLEVINVVRININNQEYIYL"
  READOUT_VALUE: 0.276
- RESIDUE_CODES: "RVSSFMSLTVGRYGKLHRDS"
  READOUT_VALUE: "inactive"
- RESIDUE_CODES: "RSSSCVLFTAGTQNNRVFVV"
  READOUT_VALUE: "inactive"

----------
# PROTOCOL: amyloid nucleation score (Sup35N fusion, yeast selection) (log enrichment); library NNK1; higher = more nucleation; inactive = no reads after selection
Short version: amyloid nucleation score at least 0.5 is t, less is f.

- SUBSTANCE: "CTIILL"
  LABEL_VALUE: "t"
- SUBSTANCE: "ITYTGASR"
  LABEL_VALUE: "f"
- SUBSTANCE: "RFYMWYLVLEVLEIGKLADP"
  LABEL_VALUE: "f"
- SUBSTANCE: "LVVVGGKLNLTTWNAR"
  LABEL_VALUE: "t"
- SUBSTANCE: "RAVGDM"
  LABEL_VALUE: "f"
- SUBSTANCE: "MRLSQRWPNSKVCDLRHSRP"
  LABEL_VALUE: "t"
- SUBSTANCE: "PMYLSSVVCFSKRHMPANRG"
  LABEL_VALUE: "f"
- SUBSTANCE: "SNTSMHRLLLIIVGKNMNVV"
  LABEL_VALUE: "f"
- SUBSTANCE: "WLCTMLYVVVIRGCNVGNLE"
  LABEL_VALUE: "f"
- SUBSTANCE: "MKIGIGVFRDREGNSGWL"
  LABEL_VALUE: "f"
- SUBSTANCE: "VLTFPLFCIGKLIKN"
  LABEL_VALUE: "t"
- SUBSTANCE: "RVIGPTHYLQLCNIMFCDYI"
  LABEL_VALUE: "t"
- SUBSTANCE: "WARESRIHTYVRVMFSGKWG"
  LABEL_VALUE: "t"
- SUBSTANCE: "TIDERDSAHKSSVFKGLKEI"
  LABEL_VALUE: "f"
- SUBSTANCE: "LIWAVLCVKHTKEYVWLAHL"
  LABEL_VALUE: "f"
- SUBSTANCE: "CPWTVMLHFSYDYCARGFKV"
  LABEL_VALUE: "f"
- SUBSTANCE: "SVFGWR"
  LABEL_VALUE: "t"
- SUBSTANCE: "YNGGCACMEAVMRFGGFFTL"
  LABEL_VALUE: "f"
- SUBSTANCE: "RVDRMKNIFVRYRTVRVHGG"
  LABEL_VALUE: "t"
- SUBSTANCE: "YEVIHICTNLEPIVRNCMGG"
  LABEL_VALUE: "t"
- SUBSTANCE: "RNFPTRCMCIQNYAKL"
  LABEL_VALUE: "t"
- SUBSTANCE: "RHVGVAGFRFLPGPCDWPAR"
  LABEL_VALUE: "t"
- SUBSTANCE: "SGSVTVCGIATTPCNMGDRK"
  LABEL_VALUE: "f"
- SUBSTANCE: "SNQQLRWCECVYNGATGKVK"
  LABEL_VALUE: "t"
- SUBSTANCE: "RVMVFGRHNEDVSKFSISGK"
  LABEL_VALUE: "t"
- SUBSTANCE: "GGLGVDATGYHVSTEGEELE"
  LABEL_VALUE: "f"
- SUBSTANCE: "TKLSPFNIGLRCRYHNLALN"
  LABEL_VALUE: "f"
- SUBSTANCE: "KAEYSDLASFGCHGHEEGGG"
  LABEL_VALUE: "t"
- SUBSTANCE: "PPETRTPVINRSLSIEFDPK"
  LABEL_VALUE: "f"
- SUBSTANCE: "LLMYSKWAFTDYGT"
  LABEL_VALUE: "f"
- SUBSTANCE: "CVGVWVRFLTQQCSTHKQYE"
  LABEL_VALUE: "f"
- SUBSTANCE: "TFRCKSCDLLYHRLENWSDW"
  LABEL_VALUE: "t"
- SUBSTANCE: "DIDFLLNLCESNLIFANM"
  LABEL_VALUE: "f"
- SUBSTANCE: "ALWNLCCHLGDGTAADSTVY"
  LABEL_VALUE: "f"
- SUBSTANCE: "LSGGPSGLINAFLYPSPNKW"
  LABEL_VALUE: "f"
